Attribution: ChEMBL document CHEMBL5046318

Target: Decaprenylphosphoryl-beta-D-ribose oxidase (Mycobacterium tuberculosis (strain ATCC 25618 / H37Rv))
Sequence (P9WJF1 whole entry): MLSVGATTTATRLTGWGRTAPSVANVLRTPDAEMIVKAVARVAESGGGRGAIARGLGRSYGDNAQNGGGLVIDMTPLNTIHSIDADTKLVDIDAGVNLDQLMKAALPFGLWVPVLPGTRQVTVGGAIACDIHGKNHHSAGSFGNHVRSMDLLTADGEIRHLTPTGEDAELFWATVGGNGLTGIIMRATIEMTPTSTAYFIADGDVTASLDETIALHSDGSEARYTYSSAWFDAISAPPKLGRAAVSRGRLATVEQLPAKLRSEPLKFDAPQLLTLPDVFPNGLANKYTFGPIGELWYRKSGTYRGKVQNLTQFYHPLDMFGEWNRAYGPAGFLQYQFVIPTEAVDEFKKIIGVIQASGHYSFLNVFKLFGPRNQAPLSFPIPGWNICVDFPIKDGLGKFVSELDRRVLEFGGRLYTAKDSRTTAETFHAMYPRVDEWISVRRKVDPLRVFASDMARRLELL
Assay: Inhibition of Mycobacterium tuberculosis H37Rv recombinant DprE1 expressed in Escherichia coli assessed as formation of resorufin using FPR as substrate by Amplex Red hydrogen/peroxidase coupled assay
# pIC50 annotations
Just so you know, pIC50 here is -log10 of the concentration in molar units; reply with that number alone.

Req: Please report the recorded pIC50 for CS(=O)(=O)c1cc([N+](=O)[O-])c2sc(N3CCN(CC4CCCCC4)CC3)nc(=O)c2c1 .
Resp: 7.30

Req: Record request: pIC50 value, item CC(C)CN1CCCN(c2nc(=O)c3cc(S(C)(=O)=O)cc([N+](=O)[O-])c3s2)CC1
Resp: 5.89

Req: I am curious: what pIC50 value has been reported for CCS(=O)(=O)N1CCN(c2nc(=O)c3cc(S(C)(=O)=O)cc([N+](=O)[O-])c3s2)CC1 ?
Resp: 5.17

Req: pIC50 lookup needed for CS(=O)(=O)c1cc([N+](=O)[O-])c2sc(N3CCCN(CC4CCCCC4)CC3)nc(=O)c2c1 , thanks.
Resp: 5.96

Req: For the compound CS(=O)(=O)c1cc([N+](=O)[O-])c2sc(N3CCCN(S(=O)(=O)C4CC4)CC3)nc(=O)c2c1 , what pIC50 is on record?
Resp: 4.78

Req: pIC50 for CS(=O)(=O)c1cc([N+](=O)[O-])c2sc(N3CCCN(CC4CCCC4)CC3)nc(=O)c2c1 ?
Resp: 5.36

Req: Consider the compound shown here: CS(=O)(=O)c1cc([N+](=O)[O-])c2sc(N3CCN(CC4CCCCC4)C4(CC4)C3)nc(=O)c2c1 What is its recorded pIC50?
Resp: 5.41

Req: Could you tell me which pIC50 is on file for CS(=O)(=O)c1cc([N+](=O)[O-])c2sc(N3CCN(S(=O)(=O)C4CC4)CC3)nc(=O)c2c1 ?
Resp: 5.15

Req: Query (compound): CS(=O)(=O)c1cc([N+](=O)[O-])c2sc(N3CCN(CC4CCOCC4)CC3)nc(=O)c2c1 ; field requested: pIC50
Resp: 4.99

Req: If you can, please state the reported pIC50 value of CS(=O)(=O)c1cc([N+](=O)[O-])c2sc(N3CCN(CC4CCC(F)(F)CC4)CC3)nc(=O)c2c1 .
Resp: 5.96

Req: I have this compound here, CCCCS(=O)(=O)N1CCN(c2nc(=O)c3cc(S(C)(=O)=O)cc([N+](=O)[O-])c3s2)CC1 , and I need its recorded pIC50.
Resp: 5.85
